Experiment: Selectivity index, ratio of CC50 for human MT-4 cells to EC50 for HIV-1 infected in MT-4 cells
Type: toxicity, cell-based
Details: read-out: Ratio CC50/EC50
recorded_endpoint: selectivity ratio
Would you mind answering with just the numeric figure?

Below: 5 molecules and their reported selectivity ratio.
In [3]: df
Out[3]:
                                   molecule  reported_measurement
0  CC(C)CN(c1ccnc(Nc2ccc(C#N)cc2)n1)c1c(F)cc(-c2ccc(C#N)cc2)cc1F                  3540
1  CCCN(c1ccnc(Nc2ccc(C#N)cc2)n1)c1c(F)cc(-c2ccc(C#N)cc2)cc1F                 11300
2  CC(O)CN(c1ccnc(Nc2ccc(C#N)cc2)n1)c1c(F)cc(-c2ccc(C#N)cc2)cc1F (configuration not stated)                  1460
3  CN(c1ccc(C#N)cc1)c1nccc(Nc2c(F)cc(-c3ccc(C#N)cc3)cc2F)n1                   824
4  COCN(c1ccnc(Nc2ccc(C#N)cc2)n1)c1c(F)cc(-c2ccc(C#N)cc2)cc1F                 42800

Problem: // fetch selectivity ratio given entry CN(c1ccnc(Nc2ccc(C#N)cc2)n1)c1c(F)cc(-c2ccc(C#N)cc2)cc1F
Result: 24100

----------
# log10(EC50) per entry
Biological target: Human immunodeficiency virus type 1 reverse transcriptase (Human immunodeficiency virus 1, UniProt Q72547, L100I)
Assay: Inhibition of HIV-1 p66/p51 reverse transcriptase L100I mutant incubated for 40 mins by picogreen dye-based spectrofluorometric analysis
Note: values are log10 of EC50 expressed in nM.

Below: 5 compounds and their reported log10(EC50).
                         structure_notation  recorded_endpoint  reported_measurement
0  CC(=O)N(c1ccnc(Nc2ccc(C#N)cc2)n1)c1c(F)cc(-c2ccc(C#N)cc2)cc1F        log10(EC50)                  1.81
1  CCCN(c1ccnc(Nc2ccc(C#N)cc2)n1)c1c(F)cc(-c2ccc(C#N)cc2)cc1F        log10(EC50)                  1.98
2  N#CCN(c1ccnc(Nc2ccc(C#N)cc2)n1)c1c(F)cc(-c2ccc(C#N)cc2)cc1F        log10(EC50)                  1.68
3  CCS(=O)(=O)N(c1ccnc(Nc2ccc(C#N)cc2)n1)c1c(F)cc(-c2ccc(C#N)cc2)cc1F        log10(EC50)                  2.29
4  Cc1cnc(Nc2ccc(C#N)cc2)nc1Nc1c(F)cc(-c2ccc(C#N)cc2)cc1F        log10(EC50)                  1.21

Problem: // fetch log10(EC50) given entry N#Cc1ccc(Nc2nccc(N(CCCO)c3c(F)cc(-c4ccc(C#N)cc4)cc3F)n2)cc1
Result: 1.61

Problem: // fetch log10(EC50) given entry N#Cc1ccc(Nc2nccc(N(CCO)c3c(F)cc(-c4ccc(C#N)cc4)cc3F)n2)cc1
Result: 1.26

Problem: // fetch log10(EC50) given entry C=CCN(c1ccnc(Nc2ccc(C#N)cc2)n1)c1c(F)cc(-c2ccc(C#N)cc2)cc1F
Result: 1.40

Problem: // fetch log10(EC50) given entry COCN(c1ccnc(Nc2ccc(C#N)cc2)n1)c1c(F)cc(-c2ccc(C#N)cc2)cc1F
Result: 1.56
